Just for reference, PubChem BioAssay AID1963849 is where these values come from.

# viability, T/C values compiled below
Tested on: 299254-011-R-J1-PDC complex spheroid viability
method.description: Anticancer human tumor 299254-011-R-J1-PDC patient-derived melanoma cell line growth inhibition [POLQ]
test.conditions: second compound 0.1 µM; first compound 0.000316 µM; active compounds read low
Procedure: Multicellular complex tumor spheroid response to Polymerase (POL) inhibitors (novobiocin, ART-558, RP6685) in combination with a variety of drugs and investigational agents in selected tumor cell lines The POL inhibitors (novobiocin, ART-558, and RP6685) were evaluated both individually and in combination with standard of care and investigational anticancer small molecules within a complex spheroid model of solid tumors. . […]
parameter: viability, T/C (%)

| compound | numeric.readout |
| --- | --- |
| Cn1ncnc1[C@H]1c2n[nH]c(=O)c3cc(F)cc(c23)N[C@@H]1c1ccc(F)cc1 + COC1C(OC(N)=O)C(O)C(Oc2ccc3c(O)c(NC(=O)c4ccc(O)c(CC=C(C)C)c4)c(=O)oc3c2C)OC1(C)C | 101 |
| Cn1ncnc1[C@H]1c2n[nH]c(=O)c3cc(F)cc(c23)N[C@@H]1c1ccc(F)cc1 + Nc1ccc(C#CCN(C(=O)Cc2ncc(C(F)(F)F)cc2C(F)(F)F)c2ccc(F)cc2)nn1 | 115 |
| CC[C@@]1(O)C(=O)OCc2c1cc1n(c2=O)Cc2cc3c(CN(C)C)c(O)ccc3nc2-1 + Nc1ccc(C#CCN(C(=O)Cc2ncc(C(F)(F)F)cc2C(F)(F)F)c2ccc(F)cc2)nn1 | 111 |
| CC[C@@]1(O)C(=O)OCc2c1cc1n(c2=O)Cc2cc3c(CN(C)C)c(O)ccc3nc2-1 + Cc1cccc(N(C)C(=O)C2C(O)CCN2c2nc(C)cc(C(F)(F)F)c2C#N)c1 | 104 |
| CC[C@@]1(O)C(=O)OCc2c1cc1n(c2=O)Cc2cc3c(CN(C)C)c(O)ccc3nc2-1 + COC1C(OC(N)=O)C(O)C(Oc2ccc3c(O)c(NC(=O)c4ccc(O)c(CC=C(C)C)c4)c(=O)oc3c2C)OC1(C)C | 111 |
| Cn1ncnc1[C@H]1c2n[nH]c(=O)c3cc(F)cc(c23)N[C@@H]1c1ccc(F)cc1 + Cc1cccc(N(C)C(=O)C2C(O)CCN2c2nc(C)cc(C(F)(F)F)c2C#N)c1 | 119 |

====

Tested on: 299254-011-R-J1-PDC complex spheroid viability
method.description: Anticancer human tumor 299254-011-R-J1-PDC cell line growth inhibition [POLQ];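 further: spheroids exposed to drugs for one week before measurement; percent viability relative to DMSO vehicle control taken as 100%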
test.conditions: second compound 3.16 µM; first compound 1 µM; active compounds read low
Method: Multicellular complex tumor spheroid response to Polymerase (POL) inhibitors (novobiocin, ART-558, RP6685) in combination with a variety of drugs and investigational agents in selected tumor cell lines The POL inhibitors (novobiocin, ART-558, and RP6685) were evaluated both individually and in combination with standard of care and investigational anticancer small molecules within a complex spheroid model of solid tumors. . […]

| compound | readout.units | viability, T/C |
| --- | --- | --- |
| C=CCn1c(=O)c2cnc(Nc3ccc(N4CCN(C)CC4)cc3)nc2n1-c1cccc(C(C)(C)O)n1 + Nc1ccc(C#CCN(C(=O)Cc2ncc(C(F)(F)F)cc2C(F)(F)F)c2ccc(F)cc2)nn1 | % | 72.5 |
| COc1cc2cc(C(=O)CCC(=O)O)sc2cc1OC + Nc1ccc(C#CCN(C(=O)Cc2ncc(C(F)(F)F)cc2C(F)(F)F)c2ccc(F)cc2)nn1 | % | 102 |
| CC(C)n1c(=O)n(C)c2cnc3cc(F)c(-c4ccc(OCCCN5CCCCC5)nc4)cc3c21 + COC1C(OC(N)=O)C(O)C(Oc2ccc3c(O)c(NC(=O)c4ccc(O)c(CC=C(C)C)c4)c(=O)oc3c2C)OC1(C)C | % | 118 |
| Nc1ccn(C2OC(CO)C(O)C2(F)F)c(=O)n1 (stereo unspecified) + Cc1cccc(N(C)C(=O)C2C(O)CCN2c2nc(C)cc(C(F)(F)F)c2C#N)c1 | % | 41.1 |
| O=C(c1cc(Cc2n[nH]c(=O)c3ccccc23)ccc1F)N1CCN(C(=O)C2CC2)CC1 + COC1C(OC(N)=O)C(O)C(Oc2ccc3c(O)c(NC(=O)c4ccc(O)c(CC=C(C)C)c4)c(=O)oc3c2C)OC1(C)C | % | 121 |
| O=c1[nH]cc(F)c(=O)[nH]1 + COC1C(OC(N)=O)C(O)C(Oc2ccc3c(O)c(NC(=O)c4ccc(O)c(CC=C(C)C)c4)c(=O)oc3c2C)OC1(C)C | % | 112 |
| CNCc1ccc(-c2[nH]c3cc(F)cc4c3c2CCNC4=O)cc1 + COC1C(OC(N)=O)C(O)C(Oc2ccc3c(O)c(NC(=O)c4ccc(O)c(CC=C(C)C)c4)c(=O)oc3c2C)OC1(C)C | % | 118 |
| COc1cc2cc(C(=O)CCC(=O)O)sc2cc1OC + Cc1cccc(N(C)C(=O)C2C(O)CCN2c2nc(C)cc(C(F)(F)F)c2C#N)c1 | % | 95 |
| CC1COCCN1c1cc(C2(O)CC3CCC(C2)O3)c2cnn(-c3ccn[nH]3)c2n1 (stereo unspecified) + Nc1ccc(C#CCN(C(=O)Cc2ncc(C(F)(F)F)cc2C(F)(F)F)c2ccc(F)cc2)nn1 | % | 23.1 |
| CCc1c2c(nc3ccc(O)cc13)-c1cc3c(c(=O)n1C2)COC(=O)[C@]3(O)CC + Nc1ccc(C#CCN(C(=O)Cc2ncc(C(F)(F)F)cc2C(F)(F)F)c2ccc(F)cc2)nn1 | % | 59.9 |
| CC1COCCN1c1cc(C2(O)CC3CCC(C2)O3)c2cnn(-c3ccn[nH]3)c2n1 (stereo unspecified) + COC1C(OC(N)=O)C(O)C(Oc2ccc3c(O)c(NC(=O)c4ccc(O)c(CC=C(C)C)c4)c(=O)oc3c2C)OC1(C)C | % | 20.4 |

====

# viability, T/C values compiled below
Test system: 299254-011-R-J1-PDC complex spheroid viability
method.description: Anticancer human tumor 299254-011-R-J1-PDC cell line growth inhibition [POLQ];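 further: spheroids exposed to drugs for one week before measurement; percent viability relative to DMSO vehicle control taken as 100%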
test.conditions: second compound 0.316 µM; first compound 3.16 µM; active compounds read low

| compound | target | viability, T/C [%] |
| --- | --- | --- |
| COc1cc(C2c3cc4c(cc3C(OC3OC5COC(C)OC5C(O)C3O)C3COC(=O)C23)OCO4)cc(OC)c1O (stereo not drawn) + Nc1ccc(C#CCN(C(=O)Cc2ncc(C(F)(F)F)cc2C(F)(F)F)c2ccc(F)cc2)nn1 | 299254-011-R-J1-PDC complex spheroid viability | 83.7 |
| CC1COCCN1c1cc(C2(S(C)(=N)=O)CC2)nc(-c2ccnc3[nH]ccc23)n1 (stereo not drawn) + Nc1ccc(C#CCN(C(=O)Cc2ncc(C(F)(F)F)cc2C(F)(F)F)c2ccc(F)cc2)nn1 | 299254-011-R-J1-PDC complex spheroid viability | 63 |
| COc1ccc([C@@H](O)c2cc(-c3ncnc4cc(N5CCOCC5)ccc34)c(F)cc2Cl)nn1 + Nc1ccc(C#CCN(C(=O)Cc2ncc(C(F)(F)F)cc2C(F)(F)F)c2ccc(F)cc2)nn1 | 299254-011-R-J1-PDC complex spheroid viability | 88.8 |

====

# viability, T/C values compiled below
Tested on: 299254-011-R-J1-PDC complex spheroid viability
method.description: Anticancer human tumor 299254-011-R-J1-PDC cell line growth inhibition [POLQ];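 further: spheroids exposed to drugs for one week before measurement; percent viability relative to DMSO vehicle control taken as 100%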
test.conditions: second compound 1 µM; first compound 0.1 µM; active compounds read low
parameter: viability, T/C (%)

| compound | numeric.readout |
| --- | --- |
| C#Cc1c(F)ccc2cc(O)cc(-c3ncc4c(N5CC6CCC(C5)N6)nc(OCC56CCCN5CC(F)C6)nc4c3F)c12 (stereo not given) + Nc1ccc(C#CCN(C(=O)Cc2ncc(C(F)(F)F)cc2C(F)(F)F)c2ccc(F)cc2)nn1 | 102 |
| CC(C)n1c(=O)n(C)c2cnc3cc(F)c(-c4ccc(OCCCN5CCCCC5)nc4)cc3c21 + Nc1ccc(C#CCN(C(=O)Cc2ncc(C(F)(F)F)cc2C(F)(F)F)c2ccc(F)cc2)nn1 | 102 |
| CC[C@@]1(O)C(=O)OCc2c1cc1n(c2=O)Cc2cc3c(CN(C)C)c(O)ccc3nc2-1 + COC1C(OC(N)=O)C(O)C(Oc2ccc3c(O)c(NC(=O)c4ccc(O)c(CC=C(C)C)c4)c(=O)oc3c2C)OC1(C)C | 67.6 |
| CCc1cc2c(N3CCc4c(cc(Cn5ccnc5)cc4-c4cn(C)nc4C(F)(F)F)C3=O)cc(C)nc2c(OC)n1 + Cc1cccc(N(C)C(=O)C2C(O)CCN2c2nc(C)cc(C(F)(F)F)c2C#N)c1 | 100 |
| COc1cccc(OCCCN)c1-c1cc(Nc2cnc(C#N)cn2)n[nH]1 + Cc1cccc(N(C)C(=O)C2C(O)CCN2c2nc(C)cc(C(F)(F)F)c2C#N)c1 | 65.9 |
